Where do these numbers come from? They come from PubChem BioAssay (NCI).

test system: RXF 393 renal; test: NCI-60 one-dose screen, 48 h; conditions: 10 µM unless noted
About 83,000 compounds went through this panel and 20% of them were active in at least one assay; those are over-represented in the sample as a whole. Calls of active or inactive are those of the source. How the source made its calls: active means growth percent below 10; inactive means the rest.
Outcome codes: active, inactive

# compound, assigned label
rows = [
    ("Cc1nc2sc(C(=O)Nc3ccc(Cl)cc3)c(N)c2cc1C(O)c1ccccc1 (centres undefined)", "inactive"),
    ("CCN(CC)CCOc1nc2c3ccc(Cl)cc3nn2c2ccccc12", "active"),
    ("NS(=O)(=O)c1ccc(N/C=C/C(=O)c2cc3ccccc3oc2=O)cc1", "inactive"),
    ("CCN(CC)CCOc1ccc(Nc2ncc3cc(-c4ccc(O)cc4)c(=O)n(C)c3n2)cc1", "active"),
    ("Cc1c(N2CN3C[C@H](C)N4CN(c5c(C)n(C)n(-c6ccccc6)c5=O)CN5C[C@@H](C)N(C2)C3C54)c(=O)n(-c2ccccc2)n1C (some centres undefined)", "inactive"),
    ("CN1CCN(Cc2ccc(NC(=O)c3cncc(C#Cc4cnn5ccccc45)c3)cc2C(F)(F)F)CC1", "active"),
    ("CSCCC(NC(=O)c1ccccc1)C(=O)N/N=C1\\S/C(=C/c2ccc(Cl)cc2)C(=O)N1C (centres undefined)", "inactive"),
    ("N#Cc1nc2c(S(=O)(=O)c3ccccc3)c(N)n(Cc3cccnc3)c2nc1C#N", "inactive"),
    ("CN1C(=O)N(C)C2C1NC(=S)N2/N=C/C=C/c1ccccc1[N+](=O)[O-] (centres undefined)", "inactive"),
    ("CC1(C)CC2=C3C=C[C@@H]4[C@@]5(C)CC[C@H](O)C(C)(C)[C@@H]5CC[C@@]4(C)[C@]3(C)CC[C@@]2(C(=O)O)CC1=O", "inactive"),
    ("NC(=S)N/N=C/c1cn(-c2ccccc2)nc1-c1cc2ccccc2oc1=O", "inactive"),
    ("Cc1c2ccccc2nc2c1ccc1cccnc12", "inactive"),
    ("O=C(Nc1nc(C(=O)N2CCN(C(c3ccccc3)c3ccccc3)CC2)cs1)c1ccc(NC2CCCCC2)c([N+](=O)[O-])c1", "inactive"),
    ("O=c1nc(Nc2nc3ccccc3s2)[nH]c(=O)c2ccccc12", "inactive"),
    ("O=C1c2cccnc2C(=O)c2c1c(C(=O)OCCCN1CCCCC1)c1ccccn21", "active"),
    ("O=C1/C(=C/c2ccc(Br)cc2)COc2ccc(O)c(O)c21", "active"),
    ("C=C(CN1CC=CCC1)[C@@H]1CC[C@]2(CO)CC[C@]3(C)[C@H](CC[C@@H]4[C@@]5(C)CC[C@H](O)C(C)(C)[C@@H]5CC[C@]43C)[C@@H]12", "inactive"),
    ("Nc1c(C(=O)Nc2ccccn2)sc2nc3c(cc12)C(O)CCC3 (centres undefined)", "active"),
    ("CNC(=O)c1cc(Oc2ccc3nc(NC(=O)Nc4ccc(Cl)c(Cl)c4)sc3c2)ccn1", "inactive"),
]

---

Below: a set of entries, each annotated with reported growth.
system: U251 CNS; assay: NCI-60 one-dose screen, 48 h (100 = growth as untreated, 0 = no growth, -100 = all killed); conditions: 10 µM unless noted
Compounds without any hit were thinned out: in the full panel of roughly 83,000, 20% have a hit.
reported metric: growth (%)

# molecule, reported metric, numeric value
records = [
    ("C[C@@H](CO)[C@@H]1CC[C@]2(C(=O)N3CCN(C)CC3)CC[C@]3(C)[C@H](CC[C@@H]4[C@@]5(C)CC[C@H](O)C(C)(C)[C@@H]5CC[C@]43C)[C@@H]12", "growth", 24.1),
    ("O=C(Nc1ncc(Cc2ccccc2Cl)s1)c1cccs1", "growth", 60.8),
    ("COC1=CC(c2ccc[nH]2)=N/C1=C\\c1[nH]c(C)c(CC(=O)OCc2ccccc2)c1C", "growth", -21),
    ("Cc1ccc2[nH]c(-c3ccc(S(C)(=O)=O)cc3)c(/C=N/N=C(N)N)c2c1", "growth", 33.4),
    ("CC1(C)O[C@H]2OC3CCC(=O)CC3(O)[C@H]2O1 (stereo partly drawn)", "growth", 96.5),
    ("COc1ccc(C/C(C)=C(/c2ccc(OCCN3CCCCCC3)cc2)c2ccc(OC(=O)NCc3ccccc3)cc2)cc1", "growth", 71.8),
    ("Fc1ccc2c(c1)c(-c1nc(-c3c[nH]c4ncccc34)cs1)cn2CCCN1CCOCC1", "growth", 30.4),
    ("CCCCCCCCCCCCCCCCCCOc1ccccc1CC(=O)OCC[N+]1(C)CCOCC1", "growth", 30.1),
    ("COc1ccc(Nc2ncc(C(N)=O)c(NCCCNC(=O)C3CCC3)n2)cc1", "growth", 56.3),
    ("CCCCN1C(=O)/C(=c2\\sc3n(c2=O)NC2C(N=3)N(CC)C(=O)N2CC)c2ccccc21 (stereo not drawn)", "growth", 33.8),
    ("CN1CCN(C(=O)c2cc(-c3ccc4ncnc(N5CCc6cc(F)c(Cl)cc65)c4c3)cnc2N)CC1", "growth", 15.4),
    ("O=C(CBr)CN1C(=O)c2ccccc2C1=O", "growth", 101),
    ("COc1ccc2cc(-c3ccc(-c4ccc(C(=N)N)s4)s3)ccc2c1", "growth", -85.9),
    ("O=C(Nc1cccnc1Nc1ccc(Cl)cc1)c1cn(Cc2ccc(F)cc2)nn1", "growth", 99),
    ("COc1ccc2nc3cc(Cl)ccc3c(NCCN)c2c1", "growth", -81.4),
    ("CC(C)(C)C(=O)/C=C/c1ccc([N+](=O)[O-])cc1", "growth", 58),
    ("COc1ccc(C(c2cc(OC)c(OC)c(OC)c2)N2CCN(Cc3ccccc3)CC2)cc1 (stereo not drawn)", "growth", 62.8),
    ("COc1ccc2nc(Cl)c(/C=C/C(=O)c3ccc(NC(=O)CSc4nnc(-c5ccc(Cl)c(Cl)c5)n4-c4ccccc4)cc3)cc2c1", "growth", 87.4),
    ("COc1cc(N2C(=O)[C@H](c3ccccc3)C2c2ccc(SC)cc2)cc(OC)c1OC (stereo partly drawn)", "growth", 7.35),
    ("CCSC1=CC(=O)c2ccccc2C1=O", "growth", 79.1),
    ("COc1ccc(C2C3=C(COC3=O)N(CCO)c3cc4c(cc32)OCCO4)cc1OC (stereo not drawn)", "growth", 26.4),
    ("C#CCOc1ccc2ncnc(Nc3cccc(NC(=O)CCl)c3)c2c1", "growth", 62.2),
    ("CC/C(Cc1ccccc1)=C(\\c1ccc(OCCN2CCCCCC2)cc1)c1ccc(OC(=O)NCc2ccccc2)cc1", "growth", 49.6),
    ("CNCc1cccc2c1OCCOCCN(C)C(=O)CN(C)S(=O)(=O)c1ccc(cc1)-c1cnc(N)c(n1)C(=O)N2", "growth", -62.3),
    ("O=C1Nc2ccc(F)cc2/C1=N/c1nnc(Sc2ccccc2)s1", "growth", 91.4),
    ("Cc1nc2ccccc2c(/C=C/c2ccc(C(F)(F)F)cc2)c1C(=O)/C=C/c1ccccc1", "growth", -84.1),
    ("CN1CCN(Cc2ccc(NC(=O)c3cncc(C#Cc4cncc5ncccc45)c3)cc2C(F)(F)F)CC1", "growth", 38.8),
    ("CS(=O)(=O)Nc1cc(-c2ccc3ncnc(Nc4ccc5c(cnn5Cc5cccnc5)c4)c3c2)cnc1Cl", "growth", 55.4),
    ("COc1cccc(/C=C2\\COc3ccc(O)cc3C2=O)c1", "growth", 45.1),
    ("CCN(CC)c1ccc(N2C(=O)/C(=C/c3cccs3)SC2=S)cc1", "growth", 89.1),
    ("Oc1c(I)cc(-c2nc3ccccc3s2)cc1CN(Cc1ccccn1)Cc1ccccn1", "growth", 8.16),
    ("C[C@@H]1O[C@@H](O[C@@H]2C[C@H](c3ccc4c(c3O)C(=O)C3=C(C4=O)[C@@]4(O)C(=O)C[C@](C)(O)C[C@@]4(O)C=C3)O[C@H](C)[C@H]2O)C[C@H](O)[C@@H]1O", "growth", 97.5),
    ("Cn1c(O)c(C(/C=C/c2ccccc2)=Nc2ccccc2N)c(=O)n(C)c1=O", "growth", 101),
    ("O=C(N/N=C/c1ccc(O)cc1O)c1ccc(Nc2ccnc(C(F)(F)F)c2)cc1", "growth", 24.6),
    ("CC(C)=CC(=O)N[C@@H]1CC2CCC3C(CC[C@@]4(C)C3CC[C@@H]4C(C)N(C)C)[C@@]2(C)C[C@@H]1O (stereo partly drawn)", "growth", 56.7),
    ("S=c1ssnc1-c1cccs1", "growth", 100),
    ("COc1ccc(/C(C)=C(\\c2ccc(OCCN3CCCCCC3)cc2)c2ccc(OC(=O)c3ccccc3)cc2)cc1", "growth", 31.7),
    ("COc1cc2c(c(OC)c1OC)C(=O)CC(c1cccc(NC(=O)c3ccccc3Br)c1)O2 (stereo not drawn)", "growth", 91.5),
]
